The origin of these recorded values is patent US20230263822A1.

Tested on: human Factor 11 mRNA
Assay: Dose-dependent inhibition of human Factor 11 in HepG2 cells, lipofectin 2.34-75 nM (Example 5)
Format: cell-based
Conditions: 18.75 nM, ~16 hours
ENDPOINT_NAME: percent inhibition of human Factor 11 mRNA relative to untreated control cells (%)
Please respond with the number in % and leave the unit unwritten.

Please indicate percent inhibition of human Factor 11 mRNA relative to untreated control cells recorded for 416925 (antisense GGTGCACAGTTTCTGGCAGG; 3-14-3 gapmer chemistry, further chemistry not given here) [compound 416925]
56

Please indicate percent inhibition of human Factor 11 mRNA relative to untreated control cells recorded for 416825 (antisense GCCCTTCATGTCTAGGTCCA; 5-10-5 gapmer, further chemistry not given here) [compound 416825]
57

Please indicate percent inhibition of human Factor 11 mRNA relative to untreated control cells recorded for 416850 (antisense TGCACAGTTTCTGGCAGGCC; 5-10-5 gapmer, further chemistry not given here) [compound 416850]
55

---

Experiment: Hematology assays in cynomolgus monkeys (Example 46)
Format: in vivo
Settings: Day 31
Strand notation (5' to 3'): a small letter for the sugar, then the base; units joined by * are phosphorothioate-linked, units joined directly phosphodiester-linked; [ ] holds rarer units or linkages, { } end groups; capitals alone tell only the bases. e = 2'-O-(2-methoxyethyl) (MOE); [5mC] = 5-methylcytosine; d = 2'-deoxy (DNA)
ENDPOINT_NAME: MCH (pg)
Please respond with the number in pg and leave the unit unwritten.

Please indicate MCH recorded for ISIS 449708: 3-8-3, 4-8-4, 2-10-2, 3-10-3 or 4-10-4 MOE microwalk gapmer (Table 46) (antisense eA*e[5mC]*eA*dG*dT*dT*dT*d[5mC]*dT*dG*dG*e[5mC]*eA*eG)
22.7

Please indicate MCH recorded for ISIS 449710: 3-8-3, 4-8-4, 2-10-2, 3-10-3 or 4-10-4 MOE microwalk gapmer (Table 46) (antisense e[5mC]*eA*e[5mC]*dA*dG*dT*dT*dT*d[5mC]*dT*dG*dG*d[5mC]*eA*eG*eG)
22.6

Please indicate MCH recorded for ISIS 449707: 3-8-3, 4-8-4, 2-10-2, 3-10-3 or 4-10-4 MOE microwalk gapmer (Table 46) (antisense e[5mC]*eA*e[5mC]*eA*dG*dT*dT*dT*d[5mC]*dT*dG*dG*e[5mC]*eA*eG*eG)
22.1

Please indicate MCH recorded for ISIS 416858: MOE gapmer, nucleobases 1275 to 1318 of SEQ ID NO: 1 (Table 8) (antisense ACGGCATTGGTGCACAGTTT; MOE gapmer, wing and gap sizes not given here)
23.0

Please indicate MCH recorded for ISIS 449711: 3-8-3, 4-8-4, 2-10-2, 3-10-3 or 4-10-4 MOE microwalk gapmer (Table 46) (antisense eA*e[5mC]*dA*dG*dT*dT*dT*d[5mC]*dT*dG*dG*d[5mC]*eA*eG)
22.1

---

System: human Factor 11 mRNA
Test: Antisense inhibition of human Factor 11 in HepG2 cells, electroporation, 8,000 nM (Example 30)
Assay type: cell-based
Settings: electroporation, 8,000 nM antisense oligonucleotide
Procedure: These microwalk gapmers were tested in vitro. Cultured HepG2 cells at a density of 20,000 cells per well were transfected using electroporation with 8,000 nM antisense oligonucleotide. After a treatment period of approximately 24 hours, RNA was isolated from the cells and Factor 11 mRNA levels were measured by quantitative real-time PCR. Factor 11 mRNA levels were adjusted according to total RNA content, as measured by RIBOGREEN. […]
Strand notation (5' to 3'): a small letter for the sugar, then the base; units joined by * are phosphorothioate-linked, units joined directly phosphodiester-linked; [ ] holds rarer units or linkages, { } end groups; capitals alone tell only the bases. e = 2'-O-(2-methoxyethyl) (MOE); [5mC] = 5-methylcytosine; d = 2'-deoxy (DNA)
Task for the reader: assign each of the following substances its reported Percent inhibition of human Factor 11 mRNA levels.
Please respond with the number in % and leave the unit unwritten.

Please indicate Percent inhibition of human Factor 11 mRNA levels recorded for 445538 (antisense eA*eG*e[5mC]*eG*eG*dA*d[5mC]*dG*dG*d[5mC]*dA*dT*dT*eG*eG*eT*eG*e[5mC]) [compound 445538]
80

Please indicate Percent inhibition of human Factor 11 mRNA levels recorded for 413481 (antisense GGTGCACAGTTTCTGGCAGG; 5-10-5 MOE gapmer, further chemistry not given here) [compound 413481]
82

Please indicate Percent inhibition of human Factor 11 mRNA levels recorded for 445508 (antisense eG*eG*eA*e[5mC]*eG*eG*d[5mC]*dA*dT*dT*dG*dG*dT*dG*e[5mC]*eA*e[5mC]*eA*eG*eT) [compound 445508]
81

Please indicate Percent inhibition of human Factor 11 mRNA levels recorded for 445526 (antisense eT*eG*eG*eT*eG*d[5mC]*dA*d[5mC]*dA*dG*dT*dT*dT*e[5mC]*eT*eG*eG*e[5mC]) [compound 445526]
81

Please indicate Percent inhibition of human Factor 11 mRNA levels recorded for 445516 (antisense e[5mC]*eT*eG*eG*e[5mC]*eA*dG*d[5mC]*dG*dG*dA*d[5mC]*dG*dG*e[5mC]*eA*eT*eT*eG*eG) [compound 445516]
79

Please indicate Percent inhibition of human Factor 11 mRNA levels recorded for 445537 (antisense eG*e[5mC]*eG*eG*eA*d[5mC]*dG*dG*d[5mC]*dA*dT*dT*dG*eG*eT*eG*e[5mC]*eA) [compound 445537]
78

---

Tested on: human Factor 11 mRNA
Test: Antisense inhibition of human Factor 11 in HepG2 cells by microwalk gapmers, lipofectin, 75 nM (Example 3)
Format: cell-based
Settings: HepG2 cells, lipofectin, gapmers targeted to nucleobases 1018 to 1042 of SEQ ID NO: 1
Strand notation (5' to 3'): a small letter for the sugar, then the base; units joined by * are phosphorothioate-linked, units joined directly phosphodiester-linked; [ ] holds rarer units or linkages, { } end groups; capitals alone tell only the bases. e = 2'-O-(2-methoxyethyl) (MOE); [5mC] = 5-methylcytosine; d = 2'-deoxy (DNA)
Task for the reader: assign each of the following substances its reported % inhibition.
Please respond with the number in % and leave the unit unwritten.

Please indicate % inhibition recorded for 416906 (antisense eA*eA*e[5mC]*d[5mC]*dG*dG*dG*dA*dT*dG*dA*dT*dG*dA*dG*dT*dG*e[5mC]*eA*eG) [compound 416906]
88

Please indicate % inhibition recorded for 416907 (antisense e[5mC]*eA*eA*d[5mC]*d[5mC]*dG*dG*dG*dA*dT*dG*dA*dT*dG*dA*dG*dT*eG*e[5mC]*eA) [compound 416907]
90

Please indicate % inhibition recorded for 412212 (antisense e[5mC]*e[5mC]*eG*eG*eG*dA*dT*dG*dA*dT*dG*dA*dG*dT*dG*e[5mC]*eA*eG*eA*eT) [compound 412212]
89

Please indicate % inhibition recorded for 416836 (antisense eA*eA*e[5mC]*e[5mC]*eG*dG*dG*dA*dT*dG*dA*dT*dG*dA*dG*eT*eG*e[5mC]*eA*eG) [compound 416836]
89

Please indicate % inhibition recorded for 416837 (antisense e[5mC]*eA*eA*e[5mC]*e[5mC]*dG*dG*dG*dA*dT*dG*dA*dT*dG*dA*eG*eT*eG*e[5mC]*eA) [compound 416837]
90

Please indicate % inhibition recorded for 416985 (antisense eG*e[5mC]*dA*dA*d[5mC]*d[5mC]*dG*dG*dG*dA*dT*dG*dA*dT*dG*eA*eG*eT*eG*e[5mC]) [compound 416985]
88

---

Tested on: human Factor 11 mRNA
Experiment: Dose-dependent inhibition of human Factor 11 in HepG2 cells, lipofectin 9.375-75 nM (Example 4)
Assay type: cell-based
Strand notation (5' to 3'): a small letter for the sugar, then the base; units joined by * are phosphorothioate-linked, units joined directly phosphodiester-linked; [ ] holds rarer units or linkages, { } end groups; capitals alone tell only the bases. e = 2'-O-(2-methoxyethyl) (MOE); [5mC] = 5-methylcytosine; d = 2'-deoxy (DNA)
Task for the reader: assign each of the following substances its reported pIC50.
Value format note: pIC50 is -log10 of concentration (mol/L); just state the number.

Please indicate pIC50 recorded for 416864 (antisense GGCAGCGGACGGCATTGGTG; 5-10-5 gapmer, further chemistry not given here) [compound 416864]
7.59

Please indicate pIC50 recorded for 416896 (antisense eT*eT*eA*dT*dG*d[5mC]*d[5mC]*d[5mC]*dT*dT*d[5mC]*dA*dT*dG*dT*d[5mC]*dT*eA*eG*eG) [compound 416896]
7.57

Please indicate pIC50 recorded for 416985 (antisense eG*e[5mC]*dA*dA*d[5mC]*d[5mC]*dG*dG*dG*dA*dT*dG*dA*dT*dG*eA*eG*eT*eG*e[5mC]) [compound 416985]
7.31

Please indicate pIC50 recorded for 416826 (antisense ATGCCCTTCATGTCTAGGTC; 5-10-5 gapmer, further chemistry not given here) [compound 416826]
7.54

Please indicate pIC50 recorded for 416926 (antisense eT*eG*eG*dT*dG*d[5mC]*dA*d[5mC]*dA*dG*dT*dT*dT*d[5mC]*dT*dG*dG*e[5mC]*eA*eG) [compound 416926]
7.66
